- Measurement Target: T1, recombinant, soluble human ASGR-1 (human, UniProt P07306 62-291)
- T1 construct: biotinylated in the binning assay; also called soluble huASGR-1; Soluble ASGR-1 (Amgen)
- T1 sequence: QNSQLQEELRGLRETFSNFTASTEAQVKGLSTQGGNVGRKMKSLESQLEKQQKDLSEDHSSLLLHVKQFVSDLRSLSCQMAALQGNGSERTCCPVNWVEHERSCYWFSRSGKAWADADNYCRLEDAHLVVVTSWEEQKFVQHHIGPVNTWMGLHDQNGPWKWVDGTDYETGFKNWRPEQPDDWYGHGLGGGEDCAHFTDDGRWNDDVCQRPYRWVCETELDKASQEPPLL
- Assay Procedure: Octet BLI dissociation, pH 7.4 minus calcium
Endpoint: % Change Compared to pH 7.4 + Calcium (%)
# output: bare number, implied unit %

Specify measured % Change Compared to pH 7.4 + Calcium for 192E4 (antibody, V domains shown, hybridoma mAb) VH: QVQLVESGGGVVQPGRSLRLSCAASGFTFSSYGMHWVRQAPGKGLEWVAVIWYDGSNKNYVDSVRGRFTISRDNSKNTLYLQMNSLRAEDTAVYYCARDRSVGYDGMDVWGQGTTVTVSS VL: DIQMTQSPSSLSASVGDRVTITCRASQGIGNYLAWFQQKPGKAPKSLIYVVSSLQSGVPSRFSGSGSGTDFTLTISSLQPEDFATYYCQRYDTYPFTFGPGTKVDIK .
-2
